test.details: Stability in aqueous solution by mass spectroscopy and NMR
Assay type: physicochemical
settings: aqueous solution
readout.kind: half-life

# chemical.smiles, half-life
data = [
    ("CN1N=CC(=CNc2ccc(F)cc2F)C1=O", "> 24 h"),
]

Lab book: half-life of "O=C1NN=C/C1=C/Nc1ccc(F)cc1F" noted as < 24 h
